# Study system: Acetylcholinesterase human (AChE) (Homo sapiens)
# Construct: purchased Sigma-Aldrich (Poznań, Poland)
# Protocol details: AChE inhibition kinetics, Ellman's method combined with capillary electrophoresis
# Type: biochemical
# Reported conditions: inhibitor 0.08 mM; acetylthiocholine 23.00 mM
Readout name: Peak area of product (4,4-dithio-bis-acid nitrobenzoic), mean
// no unit string in output, number only

Study these solved cases before continuing.
{"Compound": "CC(C)NCC(O)CN1C(=O)C2C(C1=O)C1(C)C(=O)C2(C)C(c2ccccc2)=C1c1ccccc1 (stereo not shown) [Compound (III)]", "Study system": "Acetylcholinesterase human (AChE) (Homo sapiens)", "Experimental value": 196660}
{"Compound": "CCC12C(=O)C(CC)(C(c3ccccc3)=C1c1ccccc1)C1C(=O)N(CC(O)CN(C)C)C(=O)C12 (stereo not shown) [Compound (II)]", "Study system": "Acetylcholinesterase human (AChE) (Homo sapiens)", "Experimental value": 279258}
{"Compound": "CCC12C(=O)C(CC)(C(c3ccccc3)=C1c1ccccc1)C1C(=O)N(CC(O)CNC(C)C)C(=O)C12 (stereo not shown) [Compound (I)]", "Study system": "Acetylcholinesterase human (AChE) (Homo sapiens)", "Experimental value": 247792}

Ask | Suppose we examine the compound CN(C)CC(O)CN1C(=O)C2C(C1=O)C1(C)C(=O)C2(C)C(c2ccccc2)=C1c1ccccc1 (stereo not shown) [Compound (IV)] ; what Peak area of product (4,4-dithio-bis-acid nitrobenzoic), mean value has been reported?
Reply | 228126

---

# Study system: Acetylcholinesterase human (AChE) (Homo sapiens, UniProt P22303)
# Construct: purchased Sigma-Aldrich (Poznań, Poland)
# Sequence (P22303 32-614): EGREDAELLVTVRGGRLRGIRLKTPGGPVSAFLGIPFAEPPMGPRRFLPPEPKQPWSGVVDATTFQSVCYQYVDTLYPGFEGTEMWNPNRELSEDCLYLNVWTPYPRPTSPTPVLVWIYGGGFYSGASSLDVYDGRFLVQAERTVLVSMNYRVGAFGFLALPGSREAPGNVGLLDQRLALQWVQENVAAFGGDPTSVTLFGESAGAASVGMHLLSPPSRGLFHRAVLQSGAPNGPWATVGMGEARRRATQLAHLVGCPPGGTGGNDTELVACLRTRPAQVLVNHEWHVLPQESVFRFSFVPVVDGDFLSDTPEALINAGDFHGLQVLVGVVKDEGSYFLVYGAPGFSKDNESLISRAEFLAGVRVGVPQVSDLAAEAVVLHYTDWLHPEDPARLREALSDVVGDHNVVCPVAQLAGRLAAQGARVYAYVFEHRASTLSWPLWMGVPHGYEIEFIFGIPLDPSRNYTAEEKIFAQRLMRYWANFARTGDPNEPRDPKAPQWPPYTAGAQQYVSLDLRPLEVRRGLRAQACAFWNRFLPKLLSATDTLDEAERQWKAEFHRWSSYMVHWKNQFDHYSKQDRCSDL
# Protocol details: AChE inhibition kinetics, Ellman's method combined with capillary electrophoresis
# Type: biochemical
# Reported conditions: inhibitor 0.04 mM; acetylthiocholine 0.36–46.00 mM; n = 6
Readout name: Tilt Angle of Lineweaver-Burk line (°)
Kindly answer with a numeric value in °, unit omitted.

{"Compound": "CC(C)NCC(O)CN1C(=O)C2C(C1=O)C1(C)C(=O)C2(C)C(c2ccccc2)=C1c1ccccc1 (stereo not shown)", "Experimental value": 67.38}
{"Compound": "CN(C)CC(O)CN1C(=O)C2C(C1=O)C1(C)C(=O)C2(C)C(c2ccccc2)=C1c1ccccc1 (stereo not shown)", "Experimental value": 65.58}
{"Compound": "CCC12C(=O)C(CC)(C(c3ccccc3)=C1c1ccccc1)C1C(=O)N(CC(O)CNC(C)C)C(=O)C12 (stereo not shown)", "Experimental value": 65.42}

Okay, next one:
Ask | Suppose we examine the compound CCC12C(=O)C(CC)(C(c3ccccc3)=C1c1ccccc1)C1C(=O)N(CC(O)CN(C)C)C(=O)C12 (stereo not shown) ; what Tilt Angle of Lineweaver-Burk line value has been reported?
Reply | 65.19

---

# Study system: Acetylcholinesterase human (AChE) (Homo sapiens, UniProt P22303)
# Construct: purchased Sigma-Aldrich (Poznań, Poland)
# Protocol details: AChE inhibition kinetics, Ellman's method combined with capillary electrophoresis
# Type: biochemical
# Reported conditions: inhibitor 0.08 mM; acetylthiocholine 1.44 mM
Below, each entry is listed alongside its reported Peak area of product (4,4-dithio-bis-acid nitrobenzoic), mean.

{"Compound": "CCC12C(=O)C(CC)(C(c3ccccc3)=C1c1ccccc1)C1C(=O)N(CC(O)CN(C)C)C(=O)C12 (stereo not shown)", "Experimental value": 145167}

Ask | Suppose we examine the compound CCC12C(=O)C(CC)(C(c3ccccc3)=C1c1ccccc1)C1C(=O)N(CC(O)CNC(C)C)C(=O)C12 (stereo not shown) ; what Peak area of product (4,4-dithio-bis-acid nitrobenzoic), mean value has been reported?
Reply | 128810

Ask | Another compound to look at: CC(C)NCC(O)CN1C(=O)C2C(C1=O)C1(C)C(=O)C2(C)C(c2ccccc2)=C1c1ccccc1 (stereo not shown)
Reply | 102230

Ask | Another compound to look at: CN(C)CC(O)CN1C(=O)C2C(C1=O)C1(C)C(=O)C2(C)C(c2ccccc2)=C1c1ccccc1 (stereo not shown)
Reply | 118587

---

# Study system: Acetylcholinesterase human (AChE) (Homo sapiens, UniProt P22303)
# Construct: purchased Sigma-Aldrich (Poznań, Poland)
# Protocol details: AChE inhibition kinetics, Ellman's method combined with capillary electrophoresis
# Type: biochemical
# Reported conditions: inhibitor 0.08 mM; acetylthiocholine 0.72 mM
Readout name: Peak area of product (4,4-dithio-bis-acid nitrobenzoic), mean

{"Molecule": "CC(C)NCC(O)CN1C(=O)C2C(C1=O)C1(C)C(=O)C2(C)C(c2ccccc2)=C1c1ccccc1 (stereo not shown)", "Experimental value": 72431}

Ask | Suppose we examine the molecule CN(C)CC(O)CN1C(=O)C2C(C1=O)C1(C)C(=O)C2(C)C(c2ccccc2)=C1c1ccccc1 (stereo not shown) ; what Peak area of product (4,4-dithio-bis-acid nitrobenzoic), mean value has been reported?
Reply | 84020

Ask | Another molecule to look at: CCC12C(=O)C(CC)(C(c3ccccc3)=C1c1ccccc1)C1C(=O)N(CC(O)CN(C)C)C(=O)C12 (stereo not shown)
Reply | 102853

Ask | Another molecule to look at: CCC12C(=O)C(CC)(C(c3ccccc3)=C1c1ccccc1)C1C(=O)N(CC(O)CNC(C)C)C(=O)C12 (stereo not shown)
Reply | 91263

---

# Study system: Acetylcholinesterase human (AChE) (Homo sapiens, UniProt P22303)
# Construct: purchased Sigma-Aldrich (Poznań, Poland)
# Protocol details: AChE inhibition kinetics, Ellman's method combined with capillary electrophoresis
# Type: biochemical
# Reported conditions: inhibitor 0.01 mM
Readout name: Vmax

{"Compound": "CCC12C(=O)C(CC)(C(c3ccccc3)=C1c1ccccc1)C1C(=O)N(CC(O)CN(C)C)C(=O)C12 (stereo not shown) [Compound (II)]", "Study system": "Acetylcholinesterase human (AChE) (Homo sapiens, UniProt P22303)", "Vmax": "0.62 ± 0.03 mM/min"}
{"Compound": "CC(C)NCC(O)CN1C(=O)C2C(C1=O)C1(C)C(=O)C2(C)C(c2ccccc2)=C1c1ccccc1 (stereo not shown) [Compound (III)]", "Study system": "Acetylcholinesterase human (AChE) (Homo sapiens, UniProt P22303)", "Vmax": "0.63 ± 0.01 mM/min"}

Ask | Suppose we examine the compound CN(C)CC(O)CN1C(=O)C2C(C1=O)C1(C)C(=O)C2(C)C(c2ccccc2)=C1c1ccccc1 (stereo not shown) [Compound (IV)] ; what Vmax value has been reported?
Reply | 0.63 ± 0.02 mM/min

Ask | Another compound to look at: CCC12C(=O)C(CC)(C(c3ccccc3)=C1c1ccccc1)C1C(=O)N(CC(O)CNC(C)C)C(=O)C12 (stereo not shown) [Compound (I)]
Reply | 0.63 ± 0.02 mM/min

---

# Study system: Acetylcholinesterase human (AChE) (Homo sapiens, UniProt P22303)
# Construct: purchased Sigma-Aldrich (Poznań, Poland)
# Protocol details: AChE inhibition kinetics, Ellman's method combined with capillary electrophoresis
# Type: biochemical
# Reported conditions: inhibitor 0.06 mM
Below, each entry is listed alongside its reported Vmax.
Kindly answer with a numeric value in mM/min, unit omitted.

Study these solved cases before continuing.
{"Molecule": "CC(C)NCC(O)CN1C(=O)C2C(C1=O)C1(C)C(=O)C2(C)C(c2ccccc2)=C1c1ccccc1 (stereo not shown)", "Vmax [mM/min]": 0.64}
{"Molecule": "CCC12C(=O)C(CC)(C(c3ccccc3)=C1c1ccccc1)C1C(=O)N(CC(O)CN(C)C)C(=O)C12 (stereo not shown)", "Vmax [mM/min]": 0.65}
{"Molecule": "CN(C)CC(O)CN1C(=O)C2C(C1=O)C1(C)C(=O)C2(C)C(c2ccccc2)=C1c1ccccc1 (stereo not shown)", "Vmax [mM/min]": 0.63}

Okay, next one:
Ask | Suppose we examine the molecule CCC12C(=O)C(CC)(C(c3ccccc3)=C1c1ccccc1)C1C(=O)N(CC(O)CNC(C)C)C(=O)C12 (stereo not shown) ; what Vmax value has been reported?
Reply | 0.65

---

# Study system: Acetylcholinesterase human (AChE) (Homo sapiens, UniProt P22303)
# Construct: purchased Sigma-Aldrich (Poznań, Poland)
# Protocol details: AChE inhibition kinetics, Ellman's method combined with capillary electrophoresis
# Type: biochemical
# Reported conditions: inhibitor 0.08 mM; acetylthiocholine 46.00 mM
Readout name: V0 (reaction speed), mean (mM/min)
Kindly answer with a numeric value in mM/min, unit omitted.

Study these solved cases before continuing.
{"Molecule": "CCC12C(=O)C(CC)(C(c3ccccc3)=C1c1ccccc1)C1C(=O)N(CC(O)CN(C)C)C(=O)C12 (stereo not shown)", "V0 (reaction speed), mean / mM/min": 0.67}
{"Molecule": "CCC12C(=O)C(CC)(C(c3ccccc3)=C1c1ccccc1)C1C(=O)N(CC(O)CNC(C)C)C(=O)C12 (stereo not shown)", "V0 (reaction speed), mean / mM/min": 0.67}
{"Molecule": "CN(C)CC(O)CN1C(=O)C2C(C1=O)C1(C)C(=O)C2(C)C(c2ccccc2)=C1c1ccccc1 (stereo not shown)", "V0 (reaction speed), mean / mM/min": 0.65}

Ask | Suppose we examine the molecule CC(C)NCC(O)CN1C(=O)C2C(C1=O)C1(C)C(=O)C2(C)C(c2ccccc2)=C1c1ccccc1 (stereo not shown) ; what V0 (reaction speed), mean value has been reported?
Reply | 0.64
